# test-details: qHTS assay to identify small molecule antagonists of the peroxisome proliferator-activated receptor gamma (PPARg) signaling pathway - cell viability counter screen (AID 743194); also: % is scaled to controls: 0 for no effect and ±100 for the full control effect; nearly all actives have a fitted effect of over 55% in size
# assay-setup: PPARg-bla HEK293H viability, CellTiter-Glo luminescence, 17 h, co-treated with 50 nM rosiglitazone; series mostly up to 62.6 µM
Results filed as inconclusive are left out. Active and inactive are the calls of the source. Calls follow the shape of the dose curve; as a rule, active = well fitted cell-killing curve with a large enough effect in the repeat runs; inconclusive = weak or mixed curves, or effect the other way; inactive = no such curve, though single readings can be large or run the other way.
assay-readout: activity change, negative = cytotoxicity

INSERT INTO measurements (compound, meas_value) VALUES
  ('CN1CCN(C2=Nc3ccccc3Oc3ccc(Cl)cc32)CC1', 'inactive'),
  ('O=c1[nH]cnc2c1ncn2[C@@H]1O[C@H](CO)[C@@H](O)[C@H]1O', 'inactive'),
  ('CN1[C@@H]2CC[C@H]1CC(OC(=O)c1c[nH]c3ccccc13)C2 (some centres undefined)', 'inactive'),
  ('CCCCN1C[C@H](O)[C@@H](O)[C@H](O)[C@H]1CO', 'inactive'),
  ('CCCOCCC', 'inactive'),
  ('CCC(=O)Nc1ccc(O)cc1', 'inactive');

Ask | Quote activity change, negative = cytotoxicity reported for CC(C)C(=O)OC/C=C/c1ccccc1 please.
Reply | inactive

Ask | Quote activity change, negative = cytotoxicity reported for CN(C)CC[C@@H](c1ccc(Cl)cc1)c1ccccn1 please.
Reply | inactive

Ask | Quote activity change, negative = cytotoxicity reported for CCOC(=O)CS please.
Reply | inactive

Ask | Quote activity change, negative = cytotoxicity reported for Oc1ccccc1C=NCc1ccccc1 please.
Reply | inactive

Ask | Quote activity change, negative = cytotoxicity reported for Cc1ccc([N+](=O)[O-])cc1Cl please.
Reply | inactive

Ask | Quote activity change, negative = cytotoxicity reported for COc1ccc2nc(NC(=O)Nc3ccccc3)sc2c1 please.
Reply | inactive

Ask | Quote activity change, negative = cytotoxicity reported for OCCN(CCO)CCN(CCO)CCO please.
Reply | inactive

Ask | Quote activity change, negative = cytotoxicity reported for O=C(O)c1cccc(Cl)c1Cl please.
Reply | inactive

* * *

# test-details: A CellTox Green Cytotoxicity Assay to monitor cytotoxicity in HEK293 cells - 16 hour (AID 1224888); also: potency is read from the fitted curve at half-maximal effect; nearly all actives have a fitted effect of over 35% in size
# assay-setup: CellTox Green fluorescence; series mostly up to 76.8 µM
Results filed as inconclusive are left out. The source made the active and inactive calls. The call rests on the fitted dose curve; in most records, active means well fitted activation curve with a large enough effect in the repeat runs; inconclusive means weak or mixed curves; inactive means flat fitted curve, though single readings scatter.
molecules and their reported Potency

Reference set (3 entries):
INSERT INTO assay_data (substance_smiles, assay_readout, meas_value) VALUES
  ('Cc1ccc(C=O)s1', 'Potency', '38.9 µM (active)'),
  ('O=C1CCC(C2CCCCC2)CC1', 'Potency', '43.6 µM (active)'),
  ('CN1CCN(c2c(F)cc3c(=O)c(C(=O)O)cn(CCF)c3c2F)CC1', 'Potency', '5.35 µM (active)');

Ask | Quote Potency reported for CCCCCCCCCCCCOCCOS(=O)(=O)O please.
Reply | 21.9 µM (active)

* * *

# test-details: qHTS assay to test for compound auto fluorescence at 460 nm (blue) in HepG2 cells (AID 720687); also: % is scaled to controls: 0 for no effect and ±100 for the full control effect
# assay-setup: autofluorescence 405/460 nm, 1 h; series mostly up to 91.3 µM
Activity calls are given as the source filed them. Calls follow the shape of the dose curve; as a rule, active = well fitted curve in the direction sought with a large enough effect in the repeat runs; inconclusive = weak or mixed curves; inactive = flat fitted curve, though single readings scatter.
assay-readout: fluorescence, % of fluorescent control

Reference set (8 entries):
INSERT INTO assay_data (molecule, meas_value) VALUES
  ('CCCCC(=O)O[C@]1(C(=O)CO)[C@H](C)C[C@H]2[C@@H]3CCC4=CC(=O)C=C[C@]4(C)[C@@]3(F)[C@@H](O)C[C@@]21C', 'inactive'),
  ('CN(C)C(=O)NC1(c2ccccc2)CCN(CCC[C@]2(c3ccc(Cl)c(Cl)c3)CCCN(C(=O)c3ccccc3)C2)CC1', '-0.0586% [at 18.6 µM] (inactive)'),
  ('CCOc1ccc2nc(N)sc2c1', 'inactive'),
  ('CC(C)C[C@H](NC(=O)OCC1c2ccccc2-c2ccccc21)C(=O)O', 'inactive'),
  ('C=Cc1ccccc1', 'inactive'),
  ('CC(=O)Oc1cc(C(C)C)c(OCCN(C)C)cc1C', '-0.0099% [at 18.6 µM] (inactive)'),
  ('CCCNC(C)C(=O)Nc1c(C)csc1C(=O)OC (centres undefined)', '0.025% [at 18.6 µM] (inactive)'),
  ('OCCN(CCO)CCN(CCO)CCO', 'inactive');

Ask | Quote fluorescence, % of fluorescent control reported for CN(C)CCOc1ccccc1Cc1ccccc1 please.
Reply | inactive

Ask | Quote fluorescence, % of fluorescent control reported for CCOc1ccc(OCC)c(Cl)c1 please.
Reply | inactive

Ask | Quote fluorescence, % of fluorescent control reported for Cc1cc2nc(N)sc2cc1C please.
Reply | inactive

Ask | Quote fluorescence, % of fluorescent control reported for CCC/C=C/CO please.
Reply | inactive

Ask | Quote fluorescence, % of fluorescent control reported for CCCC1CCC(=O)O1 (centres undefined) please.
Reply | inactive

Ask | Quote fluorescence, % of fluorescent control reported for Cc1ccc(C(C)C)cc1O please.
Reply | inactive
